- tested.on: T1, HDMXNTD (N-terminal domain of HDMX, amino acid residues 1 to 132 of NP-001191100) (human, UniProt O15151 1-132)
- T1 construct: range 1-132; also called HDM4
- T1 sequence (looked up): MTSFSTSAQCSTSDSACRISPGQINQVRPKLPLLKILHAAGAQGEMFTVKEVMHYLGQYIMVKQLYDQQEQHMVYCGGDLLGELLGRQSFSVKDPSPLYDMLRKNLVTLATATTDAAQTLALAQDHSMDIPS
- assay.details: ITC (FIG. 6)
pKd: −log10 of the molar value.
result.type: pKd

response.value for RMKQLEDKVGELLFSNYWLELEVARLKKLV (designed binder) [leucine zipper variant p53LZ2] (field: pKd) = ~7.10
